Experiment: in vitro
Details: rat, gh3-tre-luc cells, AC50 (uM) modified / 1000, Tox21_110001=Tox21_303256; viability, 1 nM T3 present, 24 h
Property Name: CC50 at 24 h

Which CC50 at 24 h is listed for CC(C)(O)C#N [2-Hydroxy-2-methylpropanenitrile] ?
> 90 µM

* * *

Please go through the items and note down their CC50 at 24 h.
Experiment: in vitro
Conditions: rat, gh3-tre-luc cells, AC50 (uM) modified / 1000
Structures can show the parent of a compound that is named as a salt.

Which measured CC50 at 24 h value corresponds to CO[C@H]1[C@@H](O)[C@H](N)[C@@H](O[C@H]2O[C@H]([C@H](C)N)CC[C@H]2N)[C@H](O)[C@@H]1N(C)C(=O)CN [Astromicin] ?
> 50 µM

Which CC50 at 24 h is listed for Cc1ccc(N)cc1[N+](=O)[O-] [4-Methyl-3-nitroaniline] ?
> 90 µM

# lookup: CC50 at 24 h of CC(C)(C)c1ccc(CCC=O)cc1 [3-(4-tert-Butylphenyl)propanal]
> 90 µM

Need CC50 at 24 h, item C1=COCCC1 [3,4-Dihydro-2H-pyran]
> 90 µM

Give the measured CC50 at 24 h of NCCCN1CCOCC1 [4-Morpholinepropanamine] .
> 90 µM

Any idea what CC50 at 24 h was measured for CCC#N [Propionitrile] ?
> 100 µM

Suppose we examine the compound C[C@H]1c2cccc(O)c2C(=O)C2=C(O)[C@]3(O)C(=O)C(C(N)=O)=C(O)[C@@H](N(C)C)[C@@H]3[C@@H](O)[C@@H]21 [Doxycycline hydrochloride] ; what CC50 at 24 h value has been reported?
> 50 µM

Can you share its CC50 at 24 h? I mean this compound: C=CCCCCCCCCC(=O)O [10-Undecenoic acid]
> 90 µM

What value of CC50 at 24 h has been recorded for this entry: OC(c1ccccc1)(c1ccccc1)C1CN2CCC1CC2 (stereo not drawn) [Quifenadine]
35.6 µM

Query (compound): CC(=Cc1ccccc1)[N+](=O)[O-] [(2-Nitro-1-propenyl)benzene] ; field requested: CC50 at 24 h
10.3 µM

Quick check: CC50 at 24 h of Cc1ccc(OC(=O)c2ccccc2O)cc1 [Salicylic acid p-tolyl ester] ?
> 90 µM

Query: CC50 at 24 h; subject: Nc1ccc(N)c(Cl)c1 [2-Chloro-1,4-diaminobenzene sulfate]
> 90 µM

Item under review: CCn1cc[n+](C)c1 [1-Ethyl-3-methylimidazolium thiocyanate] . Reported CC50 at 24 h?
> 90 µM

Please look up its CC50 at 24 h: CCCCCCC(C)(C)C(=O)O [Calcium neodecanoate]
> 90 µM

Item Nc1nc2c(ncn2COCCO)c(=O)[nH]1 [Acyclovir] has what recorded CC50 at 24 h?
> 20 µM

Entry O=[N+]([O-])c1ccc(Cl)c([N+](=O)[O-])c1 [1-Chloro-2,4-dinitrobenzene] : reported CC50 at 24 h = ?
12.5 µM

Given the entry COc1ccc(N)cc1N [2,4-Diaminoanisole sulfate] , report its measured CC50 at 24 h.
24.6 µM

# CC50 at 24 h lookup, item CCN1CCN(C(=O)N[C@@H](C(=O)N[C@@H]2C(=O)N3[C@@H]2SC(C)(C)[C@@H]3C(=O)O)c2ccccc2)C(=O)C1=O [Piperacillin sodium salt]
> 50 µM

* * *

System: GH3-TRE-Luc cell line
Conditions: read-out: AC50 (uM) modified / 1000; Tox21_110001=Tox21_303565; viability, 1 nM T3 present, 24 h
Structures can show the parent of a compound that is named as a salt.
Property Name: CC50 (µM)
Field format: number, assumed µM, no unit text.

# lookup: CC50 of C=C[C@H]1C[N@@]2CC[C@H]1C[C@H]2[C@H](O)c1ccnc2ccc(OC)cc12 [Quinine hydrochloride dihydrate]
50.6

* * *

System: GH3-TRE-Luc cell line
Settings: read-out: AC50 (uM) modified / 1000; Tox21_110001=Tox21_301179; viability, 1 nM T3 present, 24 h
Property Name: CC50

What CC50 appears in the records for this molecule with GH3-TRE-Luc cell line? CCCN(CCOc1c(Cl)cc(Cl)cc1Cl)C(=O)n1ccnc1
70.8 µM

* * *

Test: in vitro
Details: rat, gh3-tre-luc cells, AC50 (uM) modified / 1000, Tox21_110001=Tox21_202289; viability, 1 nM T3 present, 24 h
Property Name: CC50 at 24 h

Please report the recorded CC50 at 24 h for CCC[N+](=O)[O-] [1-Nitropropane] .
> 90 µM

* * *

Give measured CC50 at 24 h for each item. Keep answers brief.
Experiment: in vitro
Settings: rat, gh3-tre-luc cells, AC50 (uM) modified / 1000
Where a name gives a salt, the structure may show the parent alone.

Looking for the measured CC50 at 24 h of CC(=O)OC/C=C(\C)CC/C=C(\C)CCC=C(C)C [trans,trans-Farnesyl acetate] , can you help?
> 90 µM

Recorded CC50 at 24 h for COCC(C)OCC(C)O (centres unmarked) [Dipropylene glycol monomethyl ether] , please?
> 90 µM

Consider the molecule C=C(C)C(=O)OCCOc1ccccc1 and give its measured CC50 at 24 h.
> 90 µM

Entry O=C(C[C@H]1NCCC[C@@H]1O)Cn1cnc2cc(Br)c(Cl)cc2c1=O (racemic) [Halofuginone hydrochloride] : reported CC50 at 24 h = ?
> 50 µM

Name the reported CC50 at 24 h value associated with the molecule O=C1CCCCCO1 [Caprolactone]
> 90 µM

* * *

Assay: in vitro
Details: rat, gh3-tre-luc cells, AC50 (uM) modified / 1000, Tox21_110001=Tox21_111120; viability, 1 nM T3 present, 24 h
Property Name: CC50 at 24 h (µM)
# unit: µM | format: bare number

Entry under review: ClC1=C(Cl)[C@]2(Cl)[C@@H]3[C@H]4C[C@H]([C@@H]5O[C@H]45)[C@@H]3[C@@]1(Cl)C2(Cl)Cl . Reported CC50 at 24 h?
34.4

* * *

Assay: in vitro
Details: rat, gh3-tre-luc cells, AC50 (uM) modified / 1000
Counter-ions that a name gives are not always drawn.
Would you mind telling me the reported CC50 at 24 h of each entry?

Consider the compound shown here: CCCCCCCCCCCC What is its recorded CC50 at 24 h?
> 90 µM

# CC50 at 24 h lookup, item CC(CC(c1ccccc1)c1ccccc1)NC(C)(C)C (stereo not drawn) [Terodiline hydrochloride]
11 µM

Entry CCCOC(=O)c1ccc(O)cc1 : reported CC50 at 24 h = ?
> 90 µM

What value of CC50 at 24 h has been recorded for this entry: O=C(O)c1nc(Cl)c(Cl)c(Cl)c1Cl
> 90 µM

Entry CN1C(=O)C[C@@H](C(=O)N[C@@H](Cc2c[nH]cn2)C(=O)N2CCC[C@H]2C(N)=O)NC1=O : reported CC50 at 24 h = ?
> 50 µM

Look up CC50 at 24 h: CCCCCCCC/C=C\CCCCCCCC(=O)NCc1ccc(O)c(OC)c1
8.65 µM

Field request: CC50 at 24 h | item: Cc1cc(C(C)(C)C)cc(C)c1CC1=NCCN1 [Xylometazoline hydrochloride]
> 20 µM

Entry under review: CC(CC(=O)Cl)CC(C)(C)C (stereo not drawn) [3,5,5-Trimethylhexanoyl chloride] . Reported CC50 at 24 h?
> 90 µM

What value of CC50 at 24 h has been recorded for this entry: Cn1nnnc1SCC1=C(C(=O)O)N2C(=O)[C@@H](NC(=O)[C@H](OC=O)c3ccccc3)[C@H]2SC1 [Cefamandole nafate]
> 50 µM

* * *

Tested on: GH3-TRE-Luc cell line
Settings: read-out: AC50 (uM) modified / 1000; Tox21_110001=Tox21_302738; viability, 1 nM T3 present, 24 h
Where a name gives a salt, the structure may show the parent alone.
Property Name: CC50 (µM)
Write the number in µM without appending the unit.

Please give the measured CC50 for this compound: Nc1ccc(/N=N/c2ccccc2)c(N)n1 [Phenazopyridine hydrochloride]
44.8

* * *

Assay: in vitro
Settings: rat, gh3-tre-luc cells, AC50 (uM) modified / 1000, Tox21_110001=Tox21_112862; viability, 1 nM T3 present, 24 h
Counter-ions that a name gives are not always drawn.
Property Name: CC50 at 24 h

Entry Oc1ccc2c3c1O[C@H]1[C@@H](O)C=C[C@H]4[C@@H](C2)NCC[C@@]341 [N-Normorphine hydrochloride] : reported CC50 at 24 h = ?
> 100 µM

* * *

Test: in vitro
Settings: rat, gh3-tre-luc cells, AC50 (uM) modified / 1000, Tox21_110001=Tox21_113309; viability, 1 nM T3 present, 24 h
Property Name: CC50 at 24 h

// returns reported CC50 at 24 h for input COc1ccc2c(C(=O)c3ccc(Cl)cc3)c(C)n(CC(=O)O)c2c1 [Clometacine]
> 50 µM
